Property: enantiomer excess of the carboxylic acid produced by the hydrolysis; scope: individual compounds
# Run description: Stereoselective hydrolysis of anticancer agent esters with normal rat pancreas homogenate
# Run conditions: 12 hours at 30° C., pH 7.5
# number only, unit % e.e. dropped from output

Example entries and their recorded answers appear below.
Compound	Unit text	Experimental value
COC(C(=O)OC[C@H]1O[C@@H](n2cc(F)c(=O)[nH]c2=O)[C@H](O)[C@@H]1O)c1ccccc1 (stereo partly drawn) [IIb]	% e.e.	42.5
CC(C(=O)OC[C@H]1O[C@@H](n2cc(F)c(=O)[nH]c2=O)[C@H](O)[C@@H]1O)c1ccccc1 (stereo partly drawn) [IIa]	% e.e.	36.9
COC(C(=O)Oc1ccc(N(CCCl)CCCl)cc1)c1ccccc1 (racemic) [Ib]	% e.e.	8.4

Now for the compound whose enantiomer excess of the carboxylic acid produced by the hydrolysis we want.
// enantiomer excess of the carboxylic acid produced by the hydrolysis lookup, key: CC(C(=O)Oc1ccc(N(CCCl)CCCl)cc1)c1ccccc1 (racemic) [Ia] 1.0

* * *

# Run description: in vitro
# Run conditions: rat, xc cells, pH 7.5
Property: metabolised at 12 h (%)
# number only, unit % dropped from output

Compound	Unit text	metabolised at 12 h
CC(C(=O)Oc1ccc(N(CCCl)CCCl)cc1)c1ccccc1 (racemic)	%	6.3
COC(C(=O)Oc1ccc(N(CCCl)CCCl)cc1)c1ccccc1 (racemic)	%	23.9

Now for the compound whose metabolised at 12 h we want.
// metabolised at 12 h lookup, key: O=C(Oc1ccc(N(CCCl)CCCl)cc1)C(Cc1ccccc1)NC(=O)C(F)(F)F (racemic) 10.6

* * *

# Run description: Stereoselective hydrolysis of anticancer agent esters with rat pancreas cancer cells ARIP
# Run conditions: rat, arip cells, pH 7.5
Property: metabolised at 12 h; scope: individual compounds
# number only, unit % dropped from output

Example entries and their recorded answers appear below.
Compound	Experimental value
COC(C(=O)OC[C@H]1O[C@@H](n2cc(F)c(=O)[nH]c2=O)[C@H](O)[C@@H]1O)c1ccccc1 (stereo partly drawn) [IIb]	27.7
CC(C(=O)OC[C@H]1O[C@@H](n2cc(F)c(=O)[nH]c2=O)[C@H](O)[C@@H]1O)c1ccccc1 (stereo partly drawn) [IIa]	25.2

// metabolised at 12 h lookup, key: O=C(OC[C@H]1O[C@@H](n2cc(F)c(=O)[nH]c2=O)[C@H](O)[C@@H]1O)C(Cc1ccccc1)NC(=O)C(F)(F)F (stereo partly drawn) [IIc] 1.9

* * *

# Run description: in vitro
# Run conditions: human, colo 320 cells, pH 7.5
Property: metabolised at 12 h (%)
# number only, unit % dropped from output

Compound	metabolised at 12 h (%)
O=C(Oc1ccc(N(CCCl)CCCl)cc1)C(Cc1ccccc1)NC(=O)C(F)(F)F (racemic)	2.4

// metabolised at 12 h lookup, key: CC(C(=O)Oc1ccc(N(CCCl)CCCl)cc1)c1ccccc1 (racemic) 3

* * *

# System: rat liver cancer cells Anr4
# Run description: Stereoselective hydrolysis of anticancer agent esters with rat liver cancer cells Anr4
# Run conditions: Anr4; 12 hours at 30° C., pH 7.5
Mark t only when enantiomer excess of the carboxylic acid produced by the hydrolysis stays strictly below 90 % e.e.. Values equal to the cut-off are f.

Example entries begin here.
Compound	Discrete label
O=C(OC[C@H]1O[C@@H](n2cc(F)c(=O)[nH]c2=O)[C@H](O)[C@@H]1O)C(Cc1ccccc1)NC(=O)C(F)(F)F (stereo partly drawn)	f
O=C(Oc1ccc(N(CCCl)CCCl)cc1)C(Cc1ccccc1)NC(=O)C(F)(F)F (racemic)	f
CC(C(=O)Oc1ccc(N(CCCl)CCCl)cc1)c1ccccc1 (racemic)	t
CC(C(=O)OC[C@H]1O[C@@H](n2cc(F)c(=O)[nH]c2=O)[C@H](O)[C@@H]1O)c1ccccc1 (stereo partly drawn)	t

Please look at the following compound next.
Would you kindly verify if enantiomer excess of the carboxylic acid produced by the hydrolysis of COC(C(=O)OC[C@H]1O[C@@H](n2cc(F)c(=O)[nH]c2=O)[C@H](O)[C@@H]1O)c1ccccc1 (stereo partly drawn) is strictly less than 90 % e.e.? t
